target_under_test: T1, hexahistidine-PAP-myc (UniProt Q61183-1 1-739)
T1 construct: poly(A) polymerase (PAP), NM_011112, in a pQE expression vector; also called (His)6-PAP-myc; poly(A) polymerase; source: bacterially expressed (E. coli STBL2 or Rosetta(DE3)pLacI), purified; not shown: His6, N-terminal, kept; myc, C-terminal, kept
protocol: co-IP; 0.5 µg bacterially expressed GST-TTP construct and 0.5 µg (His)6-PAP-myc with anti-myc agarose in 10 mM Tris pH 7.0, 0.15 M NaCl, 1 mM MgCl2, 0.7 mM ZnCl2, 0.1% NP-40, 4°C overnight; blots with anti-myc and anti-GST
condition_context: both partners purified
property_label: binding result

GST-TTP@2-186 (domain or fragment, mouse, UniProt P22893 2-186, looked up, source: E. coli STBL2 or Rosetta(DE3)pLacI, purified (glutathione-agarose); not shown: GST, N-terminal, kept) DLSAIYESLQSMSHDLSSDHGGTESLGGLWNINSDSIPSGVTSRLTGRSTSLVEGRSCGWVPPPPGFAPLAPRPGPELSPSPTSPTATPTTSSRYKTELCRTYSESGRCRYGAKCQFAHGLGELRQANRHPKYKTELCHKFYLQGRCPYGSRCHFIHNPTEDLALPGQPHVLRQSISFSGLPSGR = binds
GST-TTP@95-158 (domain or fragment, mouse, UniProt P22893 95-158, looked up, also called TZF construct; TZF domain; source: E. coli STBL2 or Rosetta(DE3)pLacI, purified (glutathione-agarose); not shown: GST, N-terminal, kept) RYKTELCRTYSESGRCRYGAKCQFAHGLGELRQANRHPKYKTELCHKFYLQGRCPYGSRCHFIH = binds
